- Study target: ATP-dependent DNA helicase Q1 (Homo sapiens) (UniProt P46063)
- Sequence (P46063 whole entry, looked up): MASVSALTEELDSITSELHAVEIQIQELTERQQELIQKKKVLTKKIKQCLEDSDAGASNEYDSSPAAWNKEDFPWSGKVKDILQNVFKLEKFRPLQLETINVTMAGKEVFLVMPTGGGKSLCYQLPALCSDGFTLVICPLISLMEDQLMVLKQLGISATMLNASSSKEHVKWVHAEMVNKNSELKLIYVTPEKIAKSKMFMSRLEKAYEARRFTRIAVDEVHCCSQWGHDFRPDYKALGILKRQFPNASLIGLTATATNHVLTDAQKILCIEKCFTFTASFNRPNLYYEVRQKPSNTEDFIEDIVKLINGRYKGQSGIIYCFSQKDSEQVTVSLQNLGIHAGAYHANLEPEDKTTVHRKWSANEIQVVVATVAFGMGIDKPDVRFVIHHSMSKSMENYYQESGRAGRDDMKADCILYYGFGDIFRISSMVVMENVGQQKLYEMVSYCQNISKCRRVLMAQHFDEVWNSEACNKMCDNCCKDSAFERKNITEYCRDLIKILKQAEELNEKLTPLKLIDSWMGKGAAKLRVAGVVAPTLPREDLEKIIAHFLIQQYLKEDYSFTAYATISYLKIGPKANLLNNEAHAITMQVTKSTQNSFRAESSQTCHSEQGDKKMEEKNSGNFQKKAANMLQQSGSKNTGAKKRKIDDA
- Assay explanation: qHTS Assay for Inhibitors of RecQ-Like Dna Helicase 1 (RECQ1); also: nearly all actives have a fitted effect of over 30% in size
- Conditions: RECQ1 DNA unwinding, red fluorescence kinetic read; series mostly up to 57.3 µM
Hit rate of the full screen: of about 240,000 compounds, about 1,300 (0.54%) were called active. Inconclusive results (about 1%) are left out. Calls follow the shape of the dose curve; as a rule, active = well fitted inhibition curve with a large enough effect; inconclusive = small, poorly fitted or top-dose-only effect; inactive = flat fitted curve, though single readings scatter. This is one part of a sample in which actives are shown more often than they occur.
Classes used: Y (active), N (inactive)

{"Molecule": "C/C=C\\C=C\\C(=O)N1CC2(CC(c3cccc(NC(=O)/C(C)=C\\C)c3)=NO2)C[C@H]1C(N)=O (stereo partly specified)", "Discrete label": "Y"}
{"Molecule": "CCOC(=O)CC1C(=O)NCCN1C(=O)COc1ccc(Br)cc1C (stereo unspecified)", "Discrete label": "N"}
{"Molecule": "O=C1C2C(c3ccccc3)CC=CC2C(c2ccoc2)N1Cc1ccccc1 (stereo unspecified)", "Discrete label": "N"}
{"Molecule": "COC(=O)C(CC(C)C)NS(=O)(=O)c1cc(Br)ccc1Br (stereo unspecified)", "Discrete label": "N"}
{"Molecule": "CCC1(CC)C(=O)C2=C3C1[C@H](C(=O)OC)C=C(C(=O)OC)C[C@H]3[C@H]1C(=O)N(Cc3ccccc3)C(=O)[C@H]1[C@H]2C (stereo partly specified)", "Discrete label": "N"}
{"Molecule": "CCCCCCOC(=O)NCC(O)c1ccccc1 (stereo unspecified)", "Discrete label": "N"}
{"Molecule": "O=c1cc(CCl)nc2scc(-c3ccccc3)n12", "Discrete label": "N"}
{"Molecule": "Cc1ccc(SCC(CC(C)C)N2CCN(CCc3ccccc3)CCC2=O)cc1 (stereo unspecified)", "Discrete label": "N"}
{"Molecule": "OCCC(O)CO (stereo unspecified)", "Discrete label": "N"}
{"Molecule": "Nc1nc2c(ncn2[C@@H]2O[C@H](COP(=O)(O)OP(=O)(O)OP(=O)(O)O)[C@@H](O)C2O)c(=O)[nH]1 (stereo partly specified)", "Discrete label": "N"}
{"Molecule": "COc1cc(C(F)(F)F)c(C(=O)N(C)c2ccc(Cl)cc2)cn1", "Discrete label": "N"}
{"Molecule": "CC(C)C(NS(=O)(=O)c1ccc(-c2ccc(Br)cc2)cc1)C(=O)O (stereo unspecified)", "Discrete label": "N"}
{"Molecule": "Cc1cccc(-c2cc(=O)c3cc(C)ccc3o2)c1", "Discrete label": "N"}
{"Molecule": "CCC1=NN2C(=N)/C(=C/c3cc(C)n(-c4ccccc4)c3C)C(=O)N=C2S1", "Discrete label": "N"}
{"Molecule": "COc1ccc(C2=Nn3c(nnc3-c3ccccc3O)SC2)cc1", "Discrete label": "N"}
{"Molecule": "CCOC(=O)CC1C(=O)NCCN1c1nc2c(C)cccn2c(=O)c1/C=C1\\SC(=S)N(C(C)CC)C1=O (stereo unspecified)", "Discrete label": "Y"}
{"Molecule": "COc1ccc(C2/C=C\\CN(Cc3ccco3)C(C)C(=O)N2Cc2ccc(F)cc2)cc1 (stereo unspecified)", "Discrete label": "N"}
{"Molecule": "Cc1ccc(CNC(=O)C2(C(F)(F)F)C/C(=C\\Cc3ccccc3)CCCO2)o1 (stereo unspecified)", "Discrete label": "N"}
{"Molecule": "CC1CCCC(NC(=O)COC(=O)[C@@H]2CC(O)CN2S(=O)(=O)c2ccc3c(c2)OCCO3)C1C (stereo partly specified)", "Discrete label": "N"}
{"Molecule": "CN(C)S(=O)(=O)Oc1ccccc1C(=O)Nc1ccccc1Cl", "Discrete label": "N"}
{"Molecule": "Cc1ccc(C)c(SCc2nc3sc(C(=O)O)c(C)c3c(=O)[nH]2)c1", "Discrete label": "N"}
{"Molecule": "CC(C)=CCN1CCC2(CCc3ccccc32)CC1", "Discrete label": "N"}
{"Molecule": "C=CCOC(=O)C(=C)C", "Discrete label": "N"}
{"Molecule": "c1ccc(CN2CCC(N=C3NN=C(c4ccc5c(c4)OCCO5)CS3)CC2)cc1", "Discrete label": "N"}
{"Molecule": "COC(=O)CCc1ccccc1S(=O)(=O)N(CCC(=O)OC)Cc1ccccc1", "Discrete label": "N"}
{"Molecule": "Fc1ccc(Cl)cc1-c1nc(Nc2ccncc2)c2nccnc2n1", "Discrete label": "N"}
{"Molecule": "CCOC(=O)C(C)Sc1nnc(CSc2nc3nc(C)cc(C)n3n2)o1 (stereo unspecified)", "Discrete label": "N"}
{"Molecule": "NCCC(=O)c1ccccc1N", "Discrete label": "N"}
{"Molecule": "Cc1ccc(-c2nc(SCC(=O)Nc3ccccc3OC(F)F)c3c(C)c(C(=O)O)sc3n2)cc1", "Discrete label": "Y"}
{"Molecule": "COC(=O)c1ccc([C@@H](O)[C@H](C)C(=O)CC(=O)OC(C)(C)C)cc1", "Discrete label": "N"}
{"Molecule": "O=C1OCCN1C(=O)[C@H]1[C@H](c2ccccc2)C(c2ccc(F)cc2)=NN1c1ccccc1", "Discrete label": "N"}
{"Molecule": "Cc1cc(N(C)C)nc(Cl)n1", "Discrete label": "N"}
{"Molecule": "Cc1cccn2c(=O)c(/C=C3\\SC(=S)N(CC(C)C)C3=O)c(NCCCOC(C)C)nc12", "Discrete label": "N"}
{"Molecule": "C[C@@H]1O[C@@H](OC[C@H]2O[C@@H](Oc3cc(O)c4c(c3)O[C@H](c3ccc(O)c(O)c3)CC4=O)[C@H](O)[C@@H](O)[C@@H]2O)[C@H](O)[C@H](O)[C@H]1O", "Discrete label": "N"}
{"Molecule": "C=CCn1c(SCc2csc(C)n2)nc2scc(-c3ccc(C)o3)c2c1=O", "Discrete label": "N"}
{"Molecule": "O=c1cc(-c2ccc(O)c(O)c2)oc2cccc(O)c12", "Discrete label": "Y"}

###

- Study target: ATP-dependent DNA helicase Q1 (Homo sapiens)
- Assay explanation: qHTS Assay for Inhibitors of RecQ-Like Dna Helicase 1 (RECQ1); also: nearly all actives have a fitted effect of over 30% in size
- Conditions: RECQ1 DNA unwinding, red fluorescence kinetic read; series mostly up to 57.3 µM
Out of some 240,000 compounds screened, about 1,300 (0.54%) were called active. Inconclusive results (about 1%) are left out. Calls follow the shape of the dose curve; as a rule, active = well fitted inhibition curve with a large enough effect; inconclusive = small, poorly fitted or top-dose-only effect; inactive = flat fitted curve, though single readings scatter. This excerpt belongs to a sample that is enriched for actives.
Classes used: active, inactive

{"Compound": "O=C(NCc1ccccn1)[C@]1(C(F)(F)F)C[C@H](CCc2ccccc2)CCCO1", "Study target": "ATP-dependent DNA helicase Q1 (Homo sapiens)", "Discrete label": "inactive"}
{"Compound": "O=[N+]([O-])c1cc(S(=O)(=O)Nc2cccc(Cl)c2)ccc1N=Nc1c(O)[nH]c2ccccc12", "Study target": "ATP-dependent DNA helicase Q1 (Homo sapiens)", "Discrete label": "inactive"}
{"Compound": "Cc1cc(Cl)ccc1NNC(=O)c1snnc1C", "Study target": "ATP-dependent DNA helicase Q1 (Homo sapiens)", "Discrete label": "inactive"}
{"Compound": "CCOC(=O)C(CC)/C(C)=N\\NC(=O)c1cccc(C)c1 (centres undefined)", "Study target": "ATP-dependent DNA helicase Q1 (Homo sapiens)", "Discrete label": "inactive"}
{"Compound": "CC[C@H](C)[C@H](NC(=O)[C@@H](N)CCC(=O)O)C(=O)N[C@@H](CC(C)C)C(=O)N[C@@H](CC(=O)O)C(=O)N[C@H](C(=O)N1CCC[C@H]1C(=O)N[C@@H](CO)C(=O)N[C@H](C(=O)O)[C@@H](C)O)C(C)C", "Study target": "ATP-dependent DNA helicase Q1 (Homo sapiens)", "Discrete label": "inactive"}
{"Compound": "CCOC(=O)C1=C(C)N=C2c3ccccc3C(=O)C2C1c1ccc(Br)cc1 (centres undefined)", "Study target": "ATP-dependent DNA helicase Q1 (Homo sapiens)", "Discrete label": "inactive"}
{"Compound": "COc1ccc(-c2ccc(C3C4C=CCCC4(C)C(=O)N3Cc3ccccc3)c(F)c2)cc1OC (centres undefined)", "Study target": "ATP-dependent DNA helicase Q1 (Homo sapiens)", "Discrete label": "inactive"}
{"Compound": "Cc1cccc(-n2nc3c(c2NC(=O)c2ccc(Br)o2)CSC3)c1C", "Study target": "ATP-dependent DNA helicase Q1 (Homo sapiens)", "Discrete label": "active"}
{"Compound": "CCOC(=O)C1=NO[C@@]2(C=C(Br)C(=O)[C@H]3O[C@H]32)C1", "Study target": "ATP-dependent DNA helicase Q1 (Homo sapiens)", "Discrete label": "active"}

###

- Study target: ATP-dependent DNA helicase Q1 (Homo sapiens)
- Assay explanation: qHTS Assay for Inhibitors of RecQ-Like Dna Helicase 1 (RECQ1); also: nearly all actives have a fitted effect of over 30% in size; also: potency is read from the fitted curve at half-maximal effect
- Conditions: RECQ1 DNA unwinding, red fluorescence kinetic read; series mostly up to 57.3 µM
About 1,300 (0.54%) of roughly 240,000 compounds were called active. About 1% were inconclusive and are not listed. Only a selection was taken, and actives are over-represented in it overall.
Endpoint: Potency

{"Molecule": "COc1ccc(CN2CCC(=O)c3ccccc3S2(=O)=O)cc1", "Value measured": "inactive"}
{"Molecule": "S=c1[nH]c2ccccc2c2ccccc12", "Value measured": "inactive"}
{"Molecule": "COc1cc(OC)c2c(C)cc(=O)oc2c1C(CCN1CCCCC1)c1ccc(N(C)C)cc1 (stereo unspecified)", "Value measured": "inactive"}
{"Molecule": "O=C(NN1C(=O)C2C(C1=O)C1C=CC2C12CC2)c1ccccc1Cl (stereo unspecified)", "Value measured": "inactive"}
{"Molecule": "CC(=O)c1ccc(S(=O)(=O)N2CCN(C(=O)/C=C/c3ccc4ccccc4n3)CC2)cc1", "Value measured": "25.1 µM (active)"}
{"Molecule": "NC(=O)COC(=O)/C=C/c1ccc2ccccc2n1", "Value measured": "inactive"}
